From: patent US11028095B2

# system.name: NMDAR2A expressing HEK cell membranes (Homo sapiens)
# Construct: expressed in transfected cells; host or cells: HEK cells (membrane extract)
# protocol.details: NMDAR agonist assay, [3H]MK-801 binding, NMDAR2A
# Type: biochemical
# condition.set: 50 μM glutamate; [3H]MK-801 binding; read-out: NMDAR2A: log EC50 (converted)
Property: EC50; scope: individual compounds

> print(dat)
                                   compound  experimental.endpoint    result
1  O=C1NCC12CCC1(CNC1=O)N2Cc1ccccc1 (single isomer, unassigned)                   EC50    < 1 nM
2  C[C@@H](O)[C@H](NC(=O)C1CCC2(CNC2=O)N1)C(N)=O (single isomer, unassigned)                   EC50    < 1 nM
3  C[C@@H](O)[C@H](NC(=O)C1CCC2(CNC2=O)N1Cc1ccccc1)C(N)=O (single isomer, unassigned) [AM]                   EC50    < 1 nM
4  CC(C)C(=O)N1C2(CCC13CNC3=O)CNC2=O (single isomer, unassigned) [AH]                   EC50    < 1 nM
5  NC(=O)C1CCC2(CN(OCc3ccccc3)C2=O)N1 (single isomer, unassigned)                   EC50    < 1 nM
6  CC(O)C(NCC1CCC2(CNC2=O)N1)C(N)=O (single isomer, unassigned)                   EC50    < 1 nM
7  CC(C)(C)OC(=O)N1CC2(CNC2=O)CC12CNC2=O (stereo not shown)                   EC50  > 100 nM
8  CC(C)(C)OC(=O)N1C2(CCC13CNC3=O)CNC2=O (single isomer, unassigned)                   EC50  > 100 nM

Memo: CNC(=O)[C@@H](NCC1CCC2(CN(OCc3ccccc3)C2=O)N1C(=O)OC(C)(C)C)[C@@H](C)O (single isomer, unassigned) , reported EC50: > 100 nM

Memo: CNC(=O)C(NCC1CCC2(CN(OCc3ccccc3)C2=O)N1)C(C)O (single isomer, unassigned) , reported EC50: < 1 nM

Memo: CC(C)C(=O)N1C2(CCC13CNC3=O)CNC2=O (single isomer, unassigned) [AI] , reported EC50: < 1 nM

Memo: C[C@@H](O)[C@H](NC(=O)C1CCC2(CNC2=O)N1Cc1ccccc1)C(N)=O (single isomer, unassigned) [AN] , reported EC50: < 1 nM

Memo: NC(=O)C1CCC2(CNC2=O)N1Cc1ccc(F)cc1 (single isomer, unassigned) , reported EC50: < 1 nM

* * *

Property: Emax; scope: individual compounds
# system.name: NMDAR2A expressing HEK cell membranes (Homo sapiens, UniProt Q05586+Q12879)
# Construct: expressed in transfected cells; host or cells: HEK cells (membrane extract)
# Sequence (Q12879 23-1464, other chains not shown): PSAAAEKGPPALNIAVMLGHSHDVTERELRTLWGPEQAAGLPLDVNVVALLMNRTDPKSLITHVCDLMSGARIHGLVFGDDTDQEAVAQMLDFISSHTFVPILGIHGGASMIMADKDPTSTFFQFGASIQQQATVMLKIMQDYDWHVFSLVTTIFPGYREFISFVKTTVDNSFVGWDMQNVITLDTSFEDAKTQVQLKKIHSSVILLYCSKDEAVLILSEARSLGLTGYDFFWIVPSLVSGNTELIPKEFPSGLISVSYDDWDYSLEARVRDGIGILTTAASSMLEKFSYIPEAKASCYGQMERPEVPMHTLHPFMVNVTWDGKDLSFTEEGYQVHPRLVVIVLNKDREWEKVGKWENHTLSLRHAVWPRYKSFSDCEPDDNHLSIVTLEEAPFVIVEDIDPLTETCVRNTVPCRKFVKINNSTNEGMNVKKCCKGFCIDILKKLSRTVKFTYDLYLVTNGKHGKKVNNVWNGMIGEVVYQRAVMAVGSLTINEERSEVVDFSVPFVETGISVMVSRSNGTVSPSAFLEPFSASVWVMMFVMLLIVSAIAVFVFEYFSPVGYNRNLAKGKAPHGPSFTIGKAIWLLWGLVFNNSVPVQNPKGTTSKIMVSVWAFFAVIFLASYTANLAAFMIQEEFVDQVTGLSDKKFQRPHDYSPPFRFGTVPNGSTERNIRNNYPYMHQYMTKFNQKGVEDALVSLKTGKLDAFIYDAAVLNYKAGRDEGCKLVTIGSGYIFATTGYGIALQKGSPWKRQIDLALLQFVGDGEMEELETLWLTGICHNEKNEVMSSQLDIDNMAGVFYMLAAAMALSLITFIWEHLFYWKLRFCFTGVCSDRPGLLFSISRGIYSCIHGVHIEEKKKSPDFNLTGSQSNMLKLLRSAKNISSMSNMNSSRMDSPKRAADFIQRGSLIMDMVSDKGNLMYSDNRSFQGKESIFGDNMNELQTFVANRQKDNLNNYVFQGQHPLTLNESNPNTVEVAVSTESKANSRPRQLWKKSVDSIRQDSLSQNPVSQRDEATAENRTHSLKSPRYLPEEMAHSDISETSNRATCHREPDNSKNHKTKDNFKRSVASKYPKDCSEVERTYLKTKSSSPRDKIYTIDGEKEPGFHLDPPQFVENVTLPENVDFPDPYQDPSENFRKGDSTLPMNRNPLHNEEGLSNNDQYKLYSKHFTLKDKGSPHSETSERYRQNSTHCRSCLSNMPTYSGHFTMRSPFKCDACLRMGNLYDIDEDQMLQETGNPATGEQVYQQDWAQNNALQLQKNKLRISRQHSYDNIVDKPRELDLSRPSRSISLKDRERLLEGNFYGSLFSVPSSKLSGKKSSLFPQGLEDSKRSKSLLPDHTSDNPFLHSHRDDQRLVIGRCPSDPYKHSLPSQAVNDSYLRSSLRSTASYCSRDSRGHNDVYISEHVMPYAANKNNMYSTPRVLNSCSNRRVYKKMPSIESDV
# protocol.details: NMDAR agonist assay, [3H]MK-801 binding, NMDAR2A
# Format: biochemical
# condition.set: 50 μM glutamate; relative to 1 mM glycine; read-out: NMDAR2A: % maximal [3H]MK-801 binding relative to 1 mM glycine

> print(dat)
                                   compound  result
1  COc1ccc(CN2C[C@@]3(C[C@H](C(N)=O)CN3CC(C)C)C2=O)cc1  < 100%

// next entry
Memo: O=C1NCC12CCC1(CNC1=O)N2Cc1ccc(F)cc1 (single isomer, unassigned) , reported Emax: < 100%
